Biological target: P2X7 receptor (hP2X7) (Homo sapiens (Human), UniProt Q99572)
Sequence (Q99572 whole entry): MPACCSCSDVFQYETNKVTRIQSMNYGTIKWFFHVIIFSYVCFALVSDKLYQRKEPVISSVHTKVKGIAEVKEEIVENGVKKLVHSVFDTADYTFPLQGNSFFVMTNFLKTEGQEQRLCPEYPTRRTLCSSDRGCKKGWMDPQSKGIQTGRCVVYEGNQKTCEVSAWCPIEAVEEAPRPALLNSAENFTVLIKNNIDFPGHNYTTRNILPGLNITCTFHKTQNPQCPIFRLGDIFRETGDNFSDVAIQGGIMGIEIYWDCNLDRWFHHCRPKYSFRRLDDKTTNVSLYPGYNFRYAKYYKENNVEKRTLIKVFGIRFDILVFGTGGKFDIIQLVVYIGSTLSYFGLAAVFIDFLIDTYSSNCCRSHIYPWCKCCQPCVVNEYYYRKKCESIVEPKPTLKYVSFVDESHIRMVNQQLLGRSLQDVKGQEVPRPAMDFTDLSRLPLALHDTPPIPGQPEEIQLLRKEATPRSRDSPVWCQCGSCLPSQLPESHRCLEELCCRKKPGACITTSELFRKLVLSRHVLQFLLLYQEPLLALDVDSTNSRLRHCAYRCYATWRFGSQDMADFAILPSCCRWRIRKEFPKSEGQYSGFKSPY
Assay: Screen Quest Fluo-8 No Wash Calcium Assay (Bz-ATP-induced Ca2+ influx, FLIPR TETRA)
Assay type: cell-based
Details: HEK-293 cells stably transfected with P2X7 receptor, Fluo-8 calcium, Low Divalent Cation Assay Buffer
Metric: IC50 (nM)

molecule="O=C(NCC(c1cnc(C2CC2)s1)N1CCC(F)(F)CC1)c1c(F)cccc1Cl (centres unmarked)" unit_of_measurement=nM observed=36
molecule="Cc1ncoc1C(CNC(=O)c1cc(-c2ncc(F)cn2)ccc1Cl)N1CCOCC1 (centres unmarked)" unit_of_measurement=nM observed=114
molecule="Cc1ncsc1C(CNC(=O)c1cc(-c2ncc(F)cn2)ccc1F)N1CCOC(c2cnn(C)c2)C1 (centres unmarked)" unit_of_measurement=nM observed=142

(A) O=C(NCC(c1cncs1)N1CCC(F)(F)CC1)c1cc(-c2ncc(F)cn2)ccc1Cl (centres unmarked)
(B) O=C(NCC(c1cscn1)N1CCCOCC1)c1c(F)cccc1Cl (centres unmarked)
(C) O=C(NCC(c1scnc1C1CC1)N1CCC(F)(F)CC1)c1c(F)cccc1Cl (centres unmarked)
Ask | Arrange the 3 molecules from largest to smallest IC50. # the answer lists labels in the order requested
Reply | B, C, A

(I) Cc1ncsc1C(CNC(=O)c1c(F)cccc1Cl)N1CCOC2(CCC2)C1 (centres unmarked)
(II) Cc1ncsc1C(CNC(=O)c1cccc2ncccc12)N1CCOC(c2ccc(F)cc2F)C1 (centres unmarked)
Ask | Select the item whose IC50 value is smaller, choosing between I and II . Answer by quoting the chosen item's label.
Reply | II

These measurements were taken from patent US9718812B2.
